measuredEndpoint: IC50

Q. GET IC50 | system: JAK3 kinase (Homo sapiens, UniProt P52333) | item: NC(=O)c1cnc(Nc2ccc3c(c2)NC[C@H](O)CO3)nc1NC1C2CC3CC1CC(O)(C3)C2 (stereo partly drawn) [Example 38]
A. < 10 nM

Q. Fill in: IC50 on JAK3 kinase (Homo sapiens, UniProt P52333), entry CC1(Nc2nc(Nc3ccc4c(c3)NC[C@H](O)CO4)ncc2C(N)=O)CC1 [Example 68]
Sequence (P52333 whole entry): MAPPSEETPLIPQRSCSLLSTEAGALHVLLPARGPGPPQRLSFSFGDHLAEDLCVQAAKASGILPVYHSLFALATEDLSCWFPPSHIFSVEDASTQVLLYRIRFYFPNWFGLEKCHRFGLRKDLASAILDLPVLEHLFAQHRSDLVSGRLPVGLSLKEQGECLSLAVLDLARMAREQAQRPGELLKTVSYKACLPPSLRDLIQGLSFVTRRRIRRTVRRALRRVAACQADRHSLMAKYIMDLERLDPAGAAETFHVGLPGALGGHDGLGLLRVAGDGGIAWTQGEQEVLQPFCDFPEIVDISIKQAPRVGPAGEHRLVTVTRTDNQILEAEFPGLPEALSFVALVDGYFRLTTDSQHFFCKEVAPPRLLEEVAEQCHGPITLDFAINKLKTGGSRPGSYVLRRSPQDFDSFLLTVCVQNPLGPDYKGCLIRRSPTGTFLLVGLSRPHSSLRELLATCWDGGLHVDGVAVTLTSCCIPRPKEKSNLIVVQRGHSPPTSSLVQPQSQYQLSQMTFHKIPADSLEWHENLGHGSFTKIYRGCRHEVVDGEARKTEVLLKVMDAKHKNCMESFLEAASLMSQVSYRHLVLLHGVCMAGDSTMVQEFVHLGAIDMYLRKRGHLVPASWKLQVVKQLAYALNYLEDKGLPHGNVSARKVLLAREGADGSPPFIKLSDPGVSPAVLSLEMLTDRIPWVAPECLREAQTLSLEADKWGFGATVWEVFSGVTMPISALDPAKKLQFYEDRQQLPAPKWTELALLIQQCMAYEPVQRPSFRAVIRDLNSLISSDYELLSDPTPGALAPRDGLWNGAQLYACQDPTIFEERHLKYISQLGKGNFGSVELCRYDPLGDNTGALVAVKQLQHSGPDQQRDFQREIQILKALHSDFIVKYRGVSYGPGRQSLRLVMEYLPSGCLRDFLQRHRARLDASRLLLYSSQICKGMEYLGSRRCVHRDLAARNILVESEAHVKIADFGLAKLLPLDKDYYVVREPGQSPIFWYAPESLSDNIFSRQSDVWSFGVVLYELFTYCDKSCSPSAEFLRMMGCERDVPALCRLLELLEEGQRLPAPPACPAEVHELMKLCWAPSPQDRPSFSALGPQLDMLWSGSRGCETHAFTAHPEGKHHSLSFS
A. 10 to 100 nM

Q. Answer briefly: IC50 recorded on JAK3 kinase (Homo sapiens, UniProt P52333) for [2H]C([2H])([2H])O[C@H]1CNc2cc(Nc3ncc(C(N)=O)c(NC4CC4)n3)ccc2OC1 [Example 87]
A. 10 to 100 nM

* * *

JAK3 kinase (Homo sapiens, UniProt P52333): reported IC50 for various compounds.

Q. Quickly give me recorded IC50 for C#CCCCNc1nc(Nc2ccc3c(c2)NC[C@H](O)CO3)ncc1C(N)=O
A. < 10 nM

Q. Let me know recorded IC50 for NC(=O)c1cnc(Nc2ccc3c(c2)NC[C@@H](O)CO3)nc1NC1CC1 , thanks.
A. < 10 nM

Q. For the compound CC(C)CNc1nc(Nc2ccc3c(c2)NC[C@H](O)CO3)ncc1C(N)=O , give its measured IC50 value.
A. < 10 nM

Q. // fetch IC50 given entry CC(Nc1nc(Nc2ccc3c(c2)NC[C@H](O)CO3)ncc1C(N)=O)C1CC1 (some centres unmarked)
A. < 10 nM

Q. Provide measured IC50 value, entry: CC(C)OCCO[C@H]1CNc2cc(Nc3ncc(C(N)=O)c(NC4CC4)n3)ccc2OC1
A. 10 to 100 nM

Q. Supply recorded IC50 for COCCO[C@@H]1CNc2cc(Nc3ncc(C(N)=O)c(NC4CC4)n3)ccc2OC1 here.
A. 10 to 100 nM

Q. Provide measured IC50 value, entry: CCOC(=O)CO[C@H]1CNc2cc(Nc3ncc(C(N)=O)c(NC4CC4)n3)ccc2OC1
A. 10 to 100 nM

Q. # return recorded IC50 for input NC(=O)c1cnc(Nc2ccc3c(c2)NC[C@H](O)CO3)nc1NC1CC(F)(F)C1
A. 10 to 100 nM

* * *

For each entry below, report its pIC50 value.
pIC50: −log10 of the molar value.

Q. With TYK2 kinase (Homo sapiens) as the test system, provide measured pIC50 for this compound: NC(=O)c1cnc(Nc2ccc3c(c2)NC[C@H](O)CO3)nc1Nc1cccc(-c2nc[nH]n2)c1 [Example 35]
Sequence (P29597 whole entry): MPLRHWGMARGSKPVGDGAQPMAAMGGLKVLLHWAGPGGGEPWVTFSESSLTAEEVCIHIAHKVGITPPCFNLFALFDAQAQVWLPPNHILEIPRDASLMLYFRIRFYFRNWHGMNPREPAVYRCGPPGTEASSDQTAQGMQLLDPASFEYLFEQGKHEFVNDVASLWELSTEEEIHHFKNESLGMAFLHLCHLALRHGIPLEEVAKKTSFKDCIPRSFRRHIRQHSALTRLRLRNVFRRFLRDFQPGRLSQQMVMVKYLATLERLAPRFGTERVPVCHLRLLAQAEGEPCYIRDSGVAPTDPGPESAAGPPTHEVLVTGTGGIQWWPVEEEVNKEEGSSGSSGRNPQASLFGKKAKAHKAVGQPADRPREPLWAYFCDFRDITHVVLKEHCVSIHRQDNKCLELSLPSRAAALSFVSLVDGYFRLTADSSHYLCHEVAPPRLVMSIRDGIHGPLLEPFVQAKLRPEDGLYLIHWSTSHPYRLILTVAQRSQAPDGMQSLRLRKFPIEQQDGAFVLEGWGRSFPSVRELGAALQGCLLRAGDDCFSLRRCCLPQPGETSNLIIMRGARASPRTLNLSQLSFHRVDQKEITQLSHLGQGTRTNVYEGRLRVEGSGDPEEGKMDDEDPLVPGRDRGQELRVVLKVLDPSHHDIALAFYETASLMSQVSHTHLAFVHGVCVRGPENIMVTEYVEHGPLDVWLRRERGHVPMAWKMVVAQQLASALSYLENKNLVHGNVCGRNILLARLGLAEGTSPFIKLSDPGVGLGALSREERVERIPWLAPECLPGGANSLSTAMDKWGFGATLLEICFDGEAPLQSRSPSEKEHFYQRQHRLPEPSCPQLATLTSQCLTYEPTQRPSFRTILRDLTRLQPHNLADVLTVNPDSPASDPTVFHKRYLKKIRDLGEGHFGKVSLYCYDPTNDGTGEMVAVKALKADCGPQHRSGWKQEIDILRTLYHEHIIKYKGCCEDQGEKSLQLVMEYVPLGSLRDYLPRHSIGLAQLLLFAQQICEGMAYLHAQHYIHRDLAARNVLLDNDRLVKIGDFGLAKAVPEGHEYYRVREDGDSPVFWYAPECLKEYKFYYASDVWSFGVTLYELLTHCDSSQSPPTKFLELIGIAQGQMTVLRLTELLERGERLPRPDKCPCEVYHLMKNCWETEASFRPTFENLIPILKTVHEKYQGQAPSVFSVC
A. > 8.00

Q. Recall the reported pIC50 of COCCCO[C@H]1CNc2cc(Nc3ncc(C(N)=O)c(NC4CC4)n3)ccc2OC1 [Example 98] when tested on TYK2 kinase (Homo sapiens).
A. > 8.00

Q. Recall the reported pIC50 of NC(=O)c1cnc(Nc2ccc3c(c2)NC[C@H](O)CO3)nc1NCCCCO [Example 48] on TYK2 kinase (Homo sapiens) and write it down.
A. > 8.00

Q. System TYK2 kinase (Homo sapiens). Read-out pIC50. Item CCCCO[C@H]1CNc2cc(Nc3ncc(C(N)=O)c(NC4CC4)n3)ccc2OC1 [Example 81] . Report value.
A. > 8.00

Q. Please look at CCO[C@H]1CNc2cc(Nc3ncc(C(N)=O)c(NC4CC4)n3)ccc2OC1 [Example 79] and tell me its recorded pIC50 on TYK2 kinase (Homo sapiens).
A. > 8.00

Q. # lookup: TYK2 kinase (Homo sapiens) pIC50, key = NC(=O)c1cnc(Nc2ccc3c(c2)NC[C@H](O)CO3)nc1NCC1CC1 [Example 44]
A. > 8.00

Q. Provide pIC50, system TYK2 kinase (Homo sapiens), entry CCOCCO[C@H]1CNc2cc(Nc3ncc(C(N)=O)c(NC4CC4)n3)ccc2OC1 [Example 95]
A. > 8.00

Q. Recall the reported pIC50 of NC(=O)c1cnc(Nc2ccc3c(c2)NCC(O)CO3)nc1NC12CC3CC(CC(C3)C1)C2 (centres unmarked) [Example 5] on TYK2 kinase (Homo sapiens) and write it down.
A. 7.00 to 8.00

Q. Print TYK2 kinase (Homo sapiens) pIC50 for CCS(=O)(=O)NCCNc1nc(Nc2ccc3c(c2)NC[C@H](O)CO3)ncc1C(N)=O [Example 71] .
A. > 8.00

Q. Find the measured pIC50 of CCCCNc1nc(Nc2ccc3c(c2)NC[C@H](O)CO3)ncc1C(N)=O [Example 74] with TYK2 kinase (Homo sapiens) as test system.
A. > 8.00

Q. Fill in pIC50 for NC(=O)c1cnc(Nc2ccc3c(c2)NC[C@H](O)CO3)nc1NC1CNC1 [Example 58] tested with TYK2 kinase (Homo sapiens).
A. 7.00 to 8.00

Q. Fill in pIC50 for CCCO[C@@H]1CNc2cc(Nc3ncc(C(N)=O)c(NC4CC4)n3)ccc2OC1 [Example 84] tested with TYK2 kinase (Homo sapiens).
A. 7.00 to 8.00

Q. Enter pIC50 (test system TYK2 kinase (Homo sapiens)) for NC(=O)c1cnc(Nc2ccc3c(c2)NC[C@H](O)CO3)nc1NCCN1CCOCC1 [Example 61]
A. > 8.00

Q. Give the observed pIC50 of NC(=O)c1cnc(Nc2ccc3c(c2)NC[C@H](OCC2CCCO2)CO3)nc1NC1CC1 (some centres unmarked) [Example 97] for TYK2 kinase (Homo sapiens).
A. > 8.00

Q. Find the measured pIC50 of C=CCCNc1nc(Nc2ccc3c(c2)NC[C@H](O)CO3)ncc1C(N)=O [Example 76] with TYK2 kinase (Homo sapiens) as test system.
A. 7.00 to 8.00

Q. Please respond with reported pIC50 (system TYK2 kinase (Homo sapiens)) for NC(=O)c1cnc(Nc2ccc3c(c2)NCC(O)CO3)nc1NC1CCCc2ccccc21 (centres unmarked) [Example 22] .
A. 7.00 to 8.00

Q. Under TYK2 kinase (Homo sapiens), report pIC50 for NC(=O)c1cnc(Nc2ccc3c(c2)NC[C@H](O)CO3)nc1NC12CC3CC(CC(C3)C1)C2 [Example 45]
A. 7.00 to 8.00

* * *

measuredEndpoint: IC50

Q. Fill: IC50 (JAK1 kinase (Homo sapiens, UniProt P23458)) for this compound NC(=O)c1cnc(Nc2ccc3c(c2)NCC(O)CO3)nc1NC1CCOCC1 (stereo not drawn) [Example 6]
A. 10 to 100 nM

Q. Under JAK1 kinase (Homo sapiens, UniProt P23458), report IC50 for COC12CC3CC(C1)C(Nc1nc(Nc4ccc5c(c4)NC[C@H](O)CO5)ncc1C(N)=O)C(C3)C2 (stereo partly drawn) [Example 46]
A. < 10 nM

Q. Recall the reported IC50 of CC(C)Nc1nc(Nc2ccc3c(c2)NC[C@H](O)CO3)ncc1C(N)=O [Example 30] when tested on JAK1 kinase (Homo sapiens, UniProt P23458).
Sequence (P23458 whole entry): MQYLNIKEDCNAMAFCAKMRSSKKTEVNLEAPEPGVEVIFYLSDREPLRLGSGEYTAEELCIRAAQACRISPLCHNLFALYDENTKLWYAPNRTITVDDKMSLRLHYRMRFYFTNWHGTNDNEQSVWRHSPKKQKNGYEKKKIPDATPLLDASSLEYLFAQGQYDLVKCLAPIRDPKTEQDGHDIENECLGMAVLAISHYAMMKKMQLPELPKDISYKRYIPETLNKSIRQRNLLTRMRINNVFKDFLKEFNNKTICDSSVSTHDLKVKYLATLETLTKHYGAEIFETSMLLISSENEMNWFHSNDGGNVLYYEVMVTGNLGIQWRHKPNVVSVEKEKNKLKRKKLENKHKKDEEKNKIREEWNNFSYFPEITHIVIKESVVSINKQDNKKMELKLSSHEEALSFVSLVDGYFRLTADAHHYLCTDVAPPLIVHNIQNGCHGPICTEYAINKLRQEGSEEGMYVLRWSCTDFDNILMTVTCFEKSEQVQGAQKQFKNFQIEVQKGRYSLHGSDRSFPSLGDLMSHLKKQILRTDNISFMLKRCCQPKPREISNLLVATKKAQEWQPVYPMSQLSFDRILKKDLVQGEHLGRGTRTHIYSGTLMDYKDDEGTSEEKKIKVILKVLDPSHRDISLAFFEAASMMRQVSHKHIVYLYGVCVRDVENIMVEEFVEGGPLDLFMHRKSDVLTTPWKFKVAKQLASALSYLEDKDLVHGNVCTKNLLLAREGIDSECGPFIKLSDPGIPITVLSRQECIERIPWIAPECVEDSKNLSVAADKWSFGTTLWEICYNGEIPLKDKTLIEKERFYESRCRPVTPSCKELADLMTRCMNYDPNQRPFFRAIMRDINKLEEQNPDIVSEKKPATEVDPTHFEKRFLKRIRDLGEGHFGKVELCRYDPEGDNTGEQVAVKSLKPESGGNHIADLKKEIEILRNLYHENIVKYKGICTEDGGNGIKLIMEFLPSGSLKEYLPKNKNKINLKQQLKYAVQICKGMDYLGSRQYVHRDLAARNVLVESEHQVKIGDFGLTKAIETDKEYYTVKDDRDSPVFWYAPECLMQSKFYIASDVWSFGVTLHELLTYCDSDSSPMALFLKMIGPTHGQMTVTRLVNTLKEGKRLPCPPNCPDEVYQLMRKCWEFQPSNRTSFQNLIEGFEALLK
A. 10 to 100 nM

* * *

assayedSystem: TYK2 kinase (Homo sapiens)
Please respond with reported IC50 for every item in the list.

Q. Using the record for COCCOCCO[C@H]1CNc2cc(Nc3ncc(C(N)=O)c(NC4CC4)n3)ccc2OC1 , state its measured IC50.
A. < 0.01 µM

Q. Supply measured IC50 of COC1CNc2cc(Nc3ncc(C(N)=O)c(NC4CC4)n3)ccc2OC1 (stereo not shown) in your reply.
A. < 0.01 µM

Q. Provide one value: measured IC50 of C#CCCCNc1nc(Nc2ccc3c(c2)NC[C@H](O)CO3)ncc1C(N)=O
A. < 0.01 µM

Q. Give IC50 for NC(=O)c1cnc(Nc2ccc3c(c2)NC[C@H](O)CO3)nc1NCC1CCCC1
A. < 0.01 µM

Q. Note IC50 for the compound shown: NC(=O)c1cnc(Nc2ccc3c(c2)NC[C@H](O)CO3)nc1NC12CC3CC(C1)C(O)C(C3)C2 (stereo partly shown)
A. < 0.01 µM

Q. Quote IC50 reported for CC(Nc1nc(Nc2ccc3c(c2)NCC(O)CO3)ncc1C(N)=O)c1ccccc1 (stereo not shown) please.
A. 0.01 to 0.1 µM

Q. Give recorded IC50. CS(=O)(=O)CCNc1nc(Nc2ccc3c(c2)NC[C@H](O)CO3)ncc1C(N)=O
A. < 0.01 µM

Q. Determine from records and report IC50 for CC(Nc1nc(Nc2ccc3c(c2)NC[C@H](O)CO3)ncc1C(N)=O)C1CC1 (stereo partly shown)
A. < 0.01 µM

Q. # return recorded IC50 for entry CCCCCO[C@H]1CNc2cc(Nc3ncc(C(N)=O)c(NC4CC4)n3)ccc2OC1
A. 0.01 to 0.1 µM

Q. Determine from records and report IC50 for CC(Nc1nc(Nc2ccc3c(c2)NC[C@H](O)CO3)ncc1C(N)=O)C(F)(F)F (stereo partly shown)
A. 0.01 to 0.1 µM

Q. Give the reported value of IC50 for this record: CCCCCNc1nc(Nc2ccc3c(c2)NC[C@H](O)CO3)ncc1C(N)=O
A. < 0.01 µM

Q. Give recorded IC50. COC12CC3CC(C1)C(Nc1nc(Nc4ccc5c(c4)NC[C@H](O)CO5)ncc1C(N)=O)C(C3)C2 (stereo partly shown)
A. < 0.01 µM

Q. Provide IC50 value for the following compound: CCOC(=O)CO[C@H]1CNc2cc(Nc3ncc(C(N)=O)c(NC4CC4)n3)ccc2OC1
A. < 0.01 µM

Q. Identify IC50 associated with the compound CCCO[C@H]1CNc2cc(Nc3ncc(C(N)=O)c(NC4CC4)n3)ccc2OC1
A. < 0.01 µM

Q. Return reported IC50. Input compound: N#CCNc1nc(Nc2ccc3c(c2)NCC(O)CO3)ncc1C(N)=O (stereo not shown)
A. < 0.01 µM

Q. Tell me its IC50 given NC(=O)c1cnc(Nc2ccc3c(c2)NCC(O)CO3)nc1NC1CCC1 (stereo not shown) as the entry.
A. < 0.01 µM
